# Tested on: 786-0 renal
# assay.comment: NCI-60 one-dose screen, 48 h
# conditions: 10 µM unless noted
About 83,000 compounds went through this panel and 20% of them were active in at least one assay; those are over-represented in the sample as a whole. Calls of active or inactive are those of the source. The calls were made as follows: active = growth percent below 10; inactive = the rest.
Possible outcomes: active, inactive

CC1CCC(C(C)C)C(NNC(N)=O)C1 (stereo not drawn) :: inactive
O=c1n(CC2CO2)c(=O)n(CC2CO2)c(=O)n1CC1CO1 (stereo not drawn) :: inactive
CCCCOC(=O)/C=C\C(=O)NC(N)=O :: inactive
Cl :: inactive
O=C1OC(c2ccccc2)=N/C1=C\c1ccccc1 :: inactive
OC1COC(OCc2ccccc2)C(O)C1O (stereo not drawn) :: inactive
OCCN1CCCCCCC1 :: inactive
CC1=C/C(O)CC(=O)Cc2nc(co2)C(=O)N2CCC=C2C(=O)OC(C(C)C)C(C)/C=C\C(=O)NC/C=C\1 (stereo not drawn) :: active
CC(C)(O)C(=O)O :: inactive
O=[N+]([O-])c1cccc(SSc2cccc([N+](=O)[O-])c2)c1 :: inactive
Cn1cnc([N+](=O)[O-])c1Sc1ncn[nH]1 :: inactive
C/C(=C\c1ccccc1)c1ccccn1 :: inactive
Nc1ncnc2c1ncn2C1OC(COP(=O)(O)O)C(O)C1O (stereo not drawn) :: inactive
c1ccc(CNCCNCc2ccccc2)cc1 :: inactive
OCC1OC(O)C(O)C(O)C1O (stereo not drawn) :: inactive
Nc1cc(N)c(N)cc1N :: inactive
COc1cc(C(O)C2C(=O)OCC2C2(c3ccc4c(c3)OCO4)SCCCS2)cc(OC)c1OC (stereo not drawn) :: inactive
CCCCCCCCCCCCCCCc1ccc(N)c(OC2OC(CO)C(O)C(O)C2O)c1 (stereo not drawn) :: inactive

* * *

# System: LOX IMVI melanoma
# assay.comment: NCI-60 one-dose screen, 48 h (100 = growth as untreated, 0 = no growth, -100 = all killed)
# conditions: 10 µM unless noted
About 83,000 compounds went through this panel and 20% of them were active in at least one assay; those are over-represented in the sample as a whole.
Mark rule met for growth under 80%, rule not met if at or over.

OCCN1CCCCCCC1 :: rule not met
CC(=O)NCC(=O)c1ccc([N+](=O)[O-])cc1 :: rule not met
O=C(Cc1ccccc1)c1ccc(O)c(Cl)c1 :: rule met
Nc1nc(N)c2[nH]cnc2n1 :: rule not met
Cc1cc(-c2cc(C)c(O)c(C)c2)cc(C)c1O :: rule met

* * *

# Tested on: M14 melanoma
# assay.comment: NCI-60 one-dose screen, 48 h
# conditions: 10 µM unless noted
# Description: Growth inhibition of the M14 human tumor cell line is measured as a screen for anti-cancer activity. Cells are grown in 96 well plates and exposed to the test compound for 48 hours. Compounds are tested at a single concentration, which is 10^-5 M for most compounds. The reported endpoint is percent growth (GI% or GIPRCNT), where numbers from 0 - 100% represent growth inhibition, and numbers from -100% - 0 represent cell death. For example, a value of 40 represents 60% growth inhibition. […]
About 83,000 compounds went through this panel and 20% of them were active in at least one assay; those are over-represented in the sample as a whole. Activity calls are given as the source filed them. How the source made its calls: active means growth percent below 10; inactive means the rest.
Possible outcomes: active, inactive

COc1ccc(N/C=C/C2=[N+](C)c3ccccc3C2(C)C)c(OC)c1 :: inactive
O=C1OC(c2ccccc2)=N/C1=C\c1ccccc1 :: inactive
CN(C)CC1CCCCCC(CN(C)C)C1=O (stereo not drawn) :: inactive
COc1cc(C(O)C2C(=O)OCC2C2(c3ccc4c(c3)OCO4)SCCCS2)cc(OC)c1OC (stereo not drawn) :: inactive
CCCCNc1ccc(Nc2ccccc2)cc1 :: inactive
CCCCCCCCCCNC(=O)CI :: active
CC1CCC(C(C)C)C(NNC(N)=O)C1 (stereo not drawn) :: inactive
COc1ccc(Nc2ccc3ccccc3c2)cc1 :: inactive
O=CN1CCCCC1 :: inactive
ClCCOCCOc1ccc(C2CCCCC2)cc1 :: inactive
COc1ccc2cc1Oc1ccc(cc1)C[C@H]1c3cc(c(OC)cc3CCN1C)Oc1c(OC)c(OC)cc3c1[C@H](C2)N(C)CC3 :: active
CC(C)C(C)(C)c1ccc(O)cc1 :: inactive
CC(=O)NCC(=O)c1ccc([N+](=O)[O-])cc1 :: inactive
Nc1nc(N)c2[nH]cnc2n1 :: inactive
CC1CCC2(OC1)OC1CC3C4CC=C5CC(O)CCC5(C)C4CCC3(C)C1C2C (stereo not drawn) :: inactive
OC1COC(OCc2ccccc2)C(O)C1O (stereo not drawn) :: inactive
CCc1cc(C)cc(O)c1 :: inactive
N#CC(C#N)N=Nc1cc(Cl)ccc1Cl :: inactive
CC(C)(O)C(=O)O :: inactive
Cl :: inactive
CC1=C/C(O)CC(=O)Cc2nc(co2)C(=O)N2CCC=C2C(=O)OC(C(C)C)C(C)/C=C\C(=O)NC/C=C\1 (stereo not drawn) :: inactive
Nc1ncnc2c1ncn2C1OC(COP(=O)(O)O)C(O)C1O (stereo not drawn) :: inactive
CC(=O)OC(C)C(=O)NCC(C)O (stereo not drawn) :: inactive
NN1CCOC(c2ccccc2)C1 (stereo not drawn) :: inactive
CC1CCC2(C(=O)O)CCC3(C)C(=CCC4C5(C)CCC(O)C(C)(C)C5CCC43C)C2C1C (stereo not drawn) :: inactive
C/C(=C\c1ccccc1)c1ccccn1 :: inactive
CCOC(=O)c1c(C)cc(=O)oc1C :: inactive
O=C(O)CCCl :: inactive
